Test system: Salmonella Typhimurium ATCC 14028 (STm)
Construct: ATCC 14028
experimental.details: microbe, parasite or virus in culture
Set-up: Broth microdilution growth inhibition of STm at 500 uM in MHB, M9A or M9I, OD600
cond: Salmonella enterica; M9I, itaconate minimal medium, 72-120 h; read-out: % Growth Inhibition (Avg) / M9I
Listed next: entries and their corresponding inhibition at 500 µM.
# output: bare number, implied unit %

Known inhibition at 500 µM results, listed for orientation:
| compound | reading |
| --- | --- |
| CC(C)(CO)[C@@H](O)C(=O)NCCC(=O)NCCNC(=O)/C=C/C(F)(F)F | 94 |
| CCCCCCCNC(=O)CCNC(=O)[C@H](O)C(C)(C)CO | 100 |
| CCCCCCCC(=O)NCCNC(=O)[C@H](O)C(C)(C)CO | 99 |
| CC(C)(CO)[C@@H](O)C(=O)NCCC(=O)NCCNC(=O)C(F)C(F)(F)F (some centres unmarked) | 94 |

From here, focus on the item given below.
Record CC(C)(CO)[C@@H](O)C(=O)NCCC(=O)NCCNC(=O)C1CC1(F)F (some centres unmarked) / Salmonella Typhimurium ATCC 14028 (STm), inhibition at 500 µM recorded as 86
